# Measured On: CSNK1G3 (CK1 gamma 3) (Homo sapiens, UniProt Q9Y6M4)
# Sequence (Q9Y6M4 whole entry): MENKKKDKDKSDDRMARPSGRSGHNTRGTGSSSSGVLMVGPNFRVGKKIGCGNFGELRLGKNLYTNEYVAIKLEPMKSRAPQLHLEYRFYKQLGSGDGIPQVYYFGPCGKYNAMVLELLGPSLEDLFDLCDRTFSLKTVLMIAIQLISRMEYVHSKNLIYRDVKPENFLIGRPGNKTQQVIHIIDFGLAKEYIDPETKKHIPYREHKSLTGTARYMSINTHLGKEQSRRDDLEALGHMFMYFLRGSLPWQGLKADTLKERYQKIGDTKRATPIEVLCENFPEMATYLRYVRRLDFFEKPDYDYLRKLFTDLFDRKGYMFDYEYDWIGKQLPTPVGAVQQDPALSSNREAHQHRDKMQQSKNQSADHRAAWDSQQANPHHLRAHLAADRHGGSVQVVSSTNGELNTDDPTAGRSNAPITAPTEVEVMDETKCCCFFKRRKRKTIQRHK
# Assay: SelectScreen kinase specificity survey
# Reported Conditions: estimated, abridged dose response curve, read-out: Kinase inhibitory activity EC50
pEC50: −log10 of the molar value.
Readout Label: pEC50

>  <Compound>
CN(C)CCCNc1ccc2ncn3c4ccc5[nH]ncc5c4c(=O)c1c23 [Compound (IV)]

>  <pEC50>
< 5.30

$$$$

Please look at the following compound next.
Incoming: Could you tell me which pEC50 is on file for CCN(CC)CCNc1ccc2ncn3c4ccc(O)cc4c(=O)c1c23 [Symadex, reference compound] ?
Outgoing: < 5.30

====

# Measured On: UniProtKB Q9Y463
# Sequence (Q9Y463 whole entry): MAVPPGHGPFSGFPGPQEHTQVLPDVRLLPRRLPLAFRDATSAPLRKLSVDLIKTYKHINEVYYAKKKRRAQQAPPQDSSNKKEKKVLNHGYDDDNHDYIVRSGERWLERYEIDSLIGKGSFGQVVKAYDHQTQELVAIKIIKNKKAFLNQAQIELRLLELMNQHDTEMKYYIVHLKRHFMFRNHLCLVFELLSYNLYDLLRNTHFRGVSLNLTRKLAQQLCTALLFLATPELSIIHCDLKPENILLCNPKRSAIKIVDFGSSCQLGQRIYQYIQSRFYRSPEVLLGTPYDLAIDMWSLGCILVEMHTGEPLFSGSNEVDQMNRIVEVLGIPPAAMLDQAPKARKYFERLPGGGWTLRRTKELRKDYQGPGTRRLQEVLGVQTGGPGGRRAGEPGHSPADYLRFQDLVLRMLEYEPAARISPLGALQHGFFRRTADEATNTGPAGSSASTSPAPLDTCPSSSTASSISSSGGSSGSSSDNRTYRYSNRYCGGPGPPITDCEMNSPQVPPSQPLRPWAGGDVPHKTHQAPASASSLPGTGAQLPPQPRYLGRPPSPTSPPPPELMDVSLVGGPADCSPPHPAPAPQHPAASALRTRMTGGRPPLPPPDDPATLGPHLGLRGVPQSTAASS
# Assay: SelectScreen kinase specificity survey
# Reported Conditions: estimated, abridged dose response curve, read-out: Kinase inhibitory activity EC50
Readout Label: EC50
Remember to quote the unit after the number.

>  <Compound>
CN(C)CCCNc1ccc2ncn3c4ccc5[nH]ncc5c4c(=O)c1c23

>  <Measured On>
UniProtKB Q9Y463

>  <Reported Value>
820 nM

$$$$

Incoming: Give the reported EC50 for CCN(CC)CCNc1ccc2ncn3c4ccc(O)cc4c(=O)c1c23 [Symadex, reference compound] (system: UniProtKB Q9Y463).
Outgoing: 991 nM

Values compiled from patent US20100292231A1.
